Source listed as the Human Domainome abundance scans (Beltran et al. 2025).

B1: Tyrosine-protein kinase BTK, residues 215 to 273; numbered along this chain, Q06187 (parent)
chain: ELKKVVALYDYMPMNANDLQLRKGDEYFILEESNLPWWRARDKNGQEGYIPSNYVTEAE

variants of: B1; assay: abundance fitness (aPCA) (normalised: wild type 0, dead -1); higher = more abundant; growth selection in yeast, the domain comes from the species named; details: Homo sapiens
Use -0.05 as the dividing line for abundance fitness, with the line itself on the satisfied side and lower values as not satisfied.

Solved entries (count: 6):
>  <variant name>
Y54A

>  <class name>
satisfied

$$$$
>  <variant name>
Q20V

>  <class name>
not satisfied

$$$$
>  <variant name>
R41M

>  <class name>
satisfied

$$$$
>  <variant name>
N34A

>  <class name>
satisfied

$$$$
>  <variant name>
R39P

>  <class name>
not satisfied

$$$$
>  <variant name>
W37H

>  <class name>
satisfied

$$$$

Would you say `D25G` shows abundance fitness at minimum -0.05?
not satisfied

Another variant to look at: `A40W`
not satisfied

Another variant to look at: `K23V`
not satisfied

Another variant to look at: `E26V`
satisfied

Another variant to look at: `Q46D`
not satisfied

Another variant to look at: `G48D`
not satisfied

Another variant to look at: `R41T`
not satisfied

Another variant to look at: `L19D`
not satisfied

Another variant to look at: `E26I`
satisfied

Another variant to look at: `Y49H`
not satisfied

Another variant to look at: `E59F`
not satisfied
